Values compiled from patent US20240327339A1.

- Tested on: RSV A2
- measurementProtocol: In vitro probenecid inhibition assay, RSV A2 (plaque assay)
- Format: cell-based, respiratory syncytial virus (RSV)
- assayContext: human respiratory syncytial virus; Treatment (24 h after infection); HEp-2 cells

{"smilesInput": "CCCN(CCC)S(=O)(=O)c1ccc(C(=O)O)cc1", "IC50": "1.2 µM"}

###

- Tested on: RSV A2
- measurementProtocol: In vitro probenecid inhibition assay, RSV A2 (plaque assay)
- Assay type: cell-based, respiratory syncytial virus (RSV)
- assayContext: human respiratory syncytial virus; Treatment (24 h after infection); NHBE cells
pIC50: −log10 of the molar value.

{"smilesInput": "CCCN(CCC)S(=O)(=O)c1ccc(C(=O)O)cc1", "pIC50": 6.52}

###

- System: RSV A2
- measurementProtocol: In vitro probenecid inhibition assay, RSV A2 (plaque assay)
- Assay type: cell-based, respiratory syncytial virus (RSV)
- assayContext: human respiratory syncytial virus, Vero C1008; Treatment (24 h after infection); Vero E6 cells
pIC50: −log10 of the molar value.

{"molecule": "CCCN(CCC)S(=O)(=O)c1ccc(C(=O)O)cc1 [Probenecid]", "experimentalTarget": "RSV A2", "pIC50": 7.00}

###

- Test system: RSV B1
- measurementProtocol: In vitro probenecid inhibition assay, RSV B1 (plaque assay)
- Type: cell-based, respiratory syncytial virus (RSV)
- assayContext: human respiratory syncytial virus; Treatment (24 h after infection); NHBE cells

{"smilesInput": "CCCN(CCC)S(=O)(=O)c1ccc(C(=O)O)cc1", "resultUnit": "nM", "IC50": 1200}

###

- System: RSV A2
- measurementProtocol: In vitro probenecid inhibition assay, RSV A2 (plaque assay)
- Format: cell-based, respiratory syncytial virus (RSV)
- assayContext: human respiratory syncytial virus; Prophylaxis (24 h before infection); NHBE cells

{"smilesInput": "CCCN(CCC)S(=O)(=O)c1ccc(C(=O)O)cc1", "resultUnit": "nM", "IC50": 400}

###

- System: RSV B1
- measurementProtocol: In vitro probenecid inhibition assay, RSV B1 (plaque assay)
- Format: cell-based, respiratory syncytial virus (RSV)
- assayContext: human respiratory syncytial virus, Vero C1008; Treatment (24 h after infection); Vero E6 cells
pIC50: −log10 of the molar value.

{"smilesInput": "CCCN(CCC)S(=O)(=O)c1ccc(C(=O)O)cc1", "pIC50": 5.70}
